READOUT: Ka (×10³ /M/s)
Form entry: value (×10³ /M/s) — number only.

// lookup Ka | system=Segment polarity protein dishevelled homolog DVL-1 (Homo sapiens) (UniProt O14640) | key= `CCCN1C(=O)/C(=C/c2ccc(OCC(=O)O)c(Cl)c2)NC1=S`
2.5

// lookup Ka | system=Segment polarity protein dishevelled homolog DVL-1 (Homo sapiens) (UniProt O14640) | key= `COC(=O)COc1ccc(/C=C2\Sc3ccccc3C2=O)cc1`
3.2

// lookup Ka | system=Segment polarity protein dishevelled homolog DVL-1 (Homo sapiens) (UniProt O14640) | key= `COc1cc(/C=C2\Sc3ccccc3C2=O)ccc1OCC(=O)O`
2.32
